Give IC50 for every item shown.
target: BRM (Homo sapiens, UniProt P51531); experiment: ATPase catalytic activity assay of BRM (ADP-Glo); type: biochemical; conditions: read-out: BRM IC50 (μM)*
Sequence (P51531 whole entry): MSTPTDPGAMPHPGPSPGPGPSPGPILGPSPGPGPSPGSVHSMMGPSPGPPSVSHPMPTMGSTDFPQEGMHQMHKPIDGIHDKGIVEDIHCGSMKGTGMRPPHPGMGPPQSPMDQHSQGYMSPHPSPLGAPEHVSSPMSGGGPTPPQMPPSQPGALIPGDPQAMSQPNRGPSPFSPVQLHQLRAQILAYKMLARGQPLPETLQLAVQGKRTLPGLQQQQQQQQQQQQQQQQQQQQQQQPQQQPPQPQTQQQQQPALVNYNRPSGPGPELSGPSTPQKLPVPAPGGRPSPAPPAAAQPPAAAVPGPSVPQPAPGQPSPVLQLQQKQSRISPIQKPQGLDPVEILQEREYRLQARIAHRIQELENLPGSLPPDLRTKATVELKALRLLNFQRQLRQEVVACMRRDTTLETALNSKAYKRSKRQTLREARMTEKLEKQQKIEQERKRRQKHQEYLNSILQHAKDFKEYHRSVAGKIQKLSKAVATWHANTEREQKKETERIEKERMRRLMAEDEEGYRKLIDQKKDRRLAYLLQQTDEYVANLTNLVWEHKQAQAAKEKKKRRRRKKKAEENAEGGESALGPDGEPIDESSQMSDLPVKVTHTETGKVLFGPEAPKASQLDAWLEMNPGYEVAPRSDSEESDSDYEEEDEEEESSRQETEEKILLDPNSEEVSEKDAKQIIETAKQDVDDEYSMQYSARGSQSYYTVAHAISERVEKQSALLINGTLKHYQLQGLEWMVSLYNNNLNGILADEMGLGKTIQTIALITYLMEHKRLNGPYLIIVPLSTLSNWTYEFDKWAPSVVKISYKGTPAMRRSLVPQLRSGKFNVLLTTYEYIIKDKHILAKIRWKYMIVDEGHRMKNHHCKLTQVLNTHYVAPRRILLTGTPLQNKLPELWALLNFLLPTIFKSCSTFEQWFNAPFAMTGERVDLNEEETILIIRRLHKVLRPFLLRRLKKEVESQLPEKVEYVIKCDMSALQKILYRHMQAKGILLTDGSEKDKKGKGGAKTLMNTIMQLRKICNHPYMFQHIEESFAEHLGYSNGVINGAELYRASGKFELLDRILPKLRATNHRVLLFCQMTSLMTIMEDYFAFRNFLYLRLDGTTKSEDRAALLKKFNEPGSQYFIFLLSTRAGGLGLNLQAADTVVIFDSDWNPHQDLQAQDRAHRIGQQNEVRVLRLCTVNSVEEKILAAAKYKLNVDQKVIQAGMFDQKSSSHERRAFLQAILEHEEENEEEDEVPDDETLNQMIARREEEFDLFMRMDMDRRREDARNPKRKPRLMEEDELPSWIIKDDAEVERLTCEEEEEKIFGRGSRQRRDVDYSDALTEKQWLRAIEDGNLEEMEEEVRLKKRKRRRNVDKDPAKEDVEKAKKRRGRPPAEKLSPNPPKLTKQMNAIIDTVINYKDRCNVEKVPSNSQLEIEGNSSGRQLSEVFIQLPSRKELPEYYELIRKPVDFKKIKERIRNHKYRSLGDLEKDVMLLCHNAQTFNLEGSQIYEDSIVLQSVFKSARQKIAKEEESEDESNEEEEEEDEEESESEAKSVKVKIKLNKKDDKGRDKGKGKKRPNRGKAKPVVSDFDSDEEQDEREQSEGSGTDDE

# example entries with known answers
> print(dat)
                                   compound                        study.system  observation.type        value
1  C[C@@H]1CN(c2cccc(-c3csc(NC(=O)CNC(=O)c4ccc5c(c4)[C@@](C)(CO)CC5)n3)n2)C[C@H](C)O1  BRM (Homo sapiens, UniProt P51531)              IC50     < 0.1 µM
2  Cc1nccc(-c2cccc(-c3csc(NC(=O)CNC(=O)c4cccc(C(C)(C)CN)c4)n3)c2)n1 [Compound 95]  BRM (Homo sapiens, UniProt P51531)              IC50     < 0.1 µM
3  Cc1cc(-c2cccc(-c3csc(NC(=O)CNC(=O)c4ccc5c(c4)[C@](C)(CN)CCC5)n3)c2)cc(C)n1  BRM (Homo sapiens, UniProt P51531)              IC50  0.1 to 1 µM

We next turn to a different compound, shown below.
Quick one: IC50 for `CSCC[C@H](NC(=O)c1cccc(C(C)(C)CN)c1)C(=O)Nc1nc(-c2cccc(-c3ccncc3)c2)cs1` ?
0.1 to 1 µM
